This section presents compounds with their documented IC50 values.
System: Human primary T cells
Experiment: IL-2 ELISA, Human Primary T Cell, Anti-CD3+CD28+ (Example 3)
Type: cell-based
Settings: Homo sapiens, T-cell, 24 h, anti-CD3+CD28 stimulation
Be sure to follow the number with its unit.

Examples with answers:
INSERT INTO assay_data (compound, recorded_value) VALUES
  ('COc1cc(O)cc(Nc2ncc(F)c(NC3CC(C)(C)NC(C)(C)C3)n2)c1 [Compound I-453]', '1.05 µM'),
  ('CN1C(C)(C)CC(Nc2nc(Nc3ccc4c(cnn4C)c3)ncc2F)CC1(C)C [II-39]', '0.967 µM'),
  ('Cc1ccc(Nc2ncc(F)c(NC3CC(C)(C)N(CCC(=O)O)C(C)(C)C3)n2)cc1C#N [Compound I-306]', '10.5 µM'),
  ('CN1C(=O)c2ccc(Nc3ncc(F)c(NC4CC(C)(C)NC(C)(C)C4)n3)cc2C1=O [II-153]', '1.8 µM'),
  ('COc1cc(Nc2ncc(F)c(NC3CC(C)(C)N(C)C(C)(C)C3)n2)cc(OCCn2cccc2)c1 [Compound I-437]', '0.17 µM');

Ask: State the recorded IC50 for this entry: CC(C)N1C(=O)COc2cc(Nc3ncc(F)c(NC4CC(C)(C)N(C)C(C)(C)C4)n3)ccc21 [II-61]
Reply: 0.168 µM

Ask: State the recorded IC50 for this entry: CN1C(C)(C)CC(N(Cc2ccc3ccccc3n2)c2nc(Nc3ccc4c(c3)OCCO4)ncc2F)CC1(C)C [II-89]
Reply: 7.67 µM

Ask: State the recorded IC50 for this entry: Cc1ccc(Nc2ncc(F)c(NC3CC(C)(C)N(C)C(C)(C)C3)n2)cc1-c1cnn(C)c1 [Compound I-190]
Reply: 0.516 µM
